assay: clinical; details: human, in vivo, po
Parameter: t1/2, geometric mean (h)
Your answer should be a plain number; it is taken to be in h.

Exercise: # input compound: O=C(NC[C@H]1CN(c2ccc(N3CCOCC3=O)cc2)C(=O)O1)c1ccc(Cl)s1 [Rivaroxaban, rivaroxaban] ; wanted: its t1/2, geometric mean
Solution: 6.3

Exercise: Cool, now COc1ccc(-n2nc(C(N)=O)c3c2C(=O)N(c2ccc(N4CCCCC4=O)cc2)CC3)cc1 [Apixaban, apixaban]
Solution: 7.1

----------
experiment: clinical; conditions: human, in vivo, po, Cmax, geometric mean
For each of the molecules below, state its Cmax.
Your answer should be a plain number; it is taken to be in ng/mL.

Exercise: # input molecule: O=C(NC[C@H]1CN(c2ccc(N3CCOCC3=O)cc2)C(=O)O1)c1ccc(Cl)s1 ; wanted: its Cmax
Solution: 0.65

Exercise: Cool, now COc1ccc(-n2nc(C(N)=O)c3c2C(=O)N(c2ccc(N4CCCCC4=O)cc2)CC3)cc1
Solution: 0.653

----------
assay: Pharmacokinetics of a single 60 mg edoxaban dose before and during clarithromycin; settings: human, in vivo, 60 mg
Parameter: Cmax (ng/mL)
Your answer should be a plain number; it is taken to be in ng/mL.

Exercise: # input molecule: CN1CCc2nc(C(=O)N[C@@H]3C[C@@H](C(=O)N(C)C)CC[C@@H]3NC(=O)C(=O)Nc3ccc(Cl)cn3)sc2C1 ; wanted: its Cmax
Solution: 203

----------
system: CYP3A; assay: CYP3A activity by oral midazolam microdose (AUC2-4, limited sampling); assay type: in vivo, human (healthy volunteers); details: human, plasma, 30 ug, oral microdose 30 μg, baseline
Parameter: AUC
Please report the result as a number followed by the unit.

Exercise: Please tell me: AUC of Cc1ncc2n1-c1ccc(Cl)cc1C(c1ccccc1F)=NC2 , system CYP3A?
Solution: 0.107 ng·h/mL

----------
experiment: Pharmacokinetics of a microdosed FXaI cocktail before and during clarithromycin; settings: human, in vivo, po, Tmax, geometric mean, oral microdose cocktail, at clarithromycin steady-state
Parameter: Tmax
Please report the result as a number followed by the unit.

Exercise: # input compound: CN1CCc2nc(C(=O)N[C@@H]3C[C@@H](C(=O)N(C)C)CC[C@@H]3NC(=O)C(=O)Nc3ccc(Cl)cn3)sc2C1 ; wanted: its Tmax
Solution: 1.72 h

----------
test: Pharmacokinetics of a microdosed FXaI cocktail before and during clarithromycin; details: human, in vivo, po, AUC0-∝, geometric mean, oral microdose cocktail, at steady-state clarithromycin (day 8)
Parameter: AUC

Exercise: # input compound: CN1CCc2nc(C(=O)N[C@@H]3C[C@@H](C(=O)N(C)C)CC[C@@H]3NC(=O)C(=O)Nc3ccc(Cl)cn3)sc2C1 ; wanted: its AUC
Solution: 2.13 ng·h/mL

----------
test: Pharmacokinetics of a microdosed FXaI cocktail before and during clarithromycin; conditions: human, in vivo, po, Tmax, geometric mean, oral microdose cocktail, baseline
Parameter: Tmax (h)
Your answer should be a plain number; it is taken to be in h.

Exercise: # input compound: CN1CCc2nc(C(=O)N[C@@H]3C[C@@H](C(=O)N(C)C)CC[C@@H]3NC(=O)C(=O)Nc3ccc(Cl)cn3)sc2C1 [Edoxaban, edoxaban] ; wanted: its Tmax
Solution: 1.17

----------
experiment: Pharmacokinetics of a single 60 mg edoxaban dose before and during clarithromycin; details: human, in vivo, 60 mg, Vz, geometric mean, edoxaban 60 mg, at clarithromycin steady-state
Parameter: Vd (L)
Your answer should be a plain number; it is taken to be in L.

Exercise: # input compound: CN1CCc2nc(C(=O)N[C@@H]3C[C@@H](C(=O)N(C)C)CC[C@@H]3NC(=O)C(=O)Nc3ccc(Cl)cn3)sc2C1 [Edoxaban, edoxaban] ; wanted: its Vd
Solution: 361

----------
tested on: CYP3A; experiment: CYP3A activity by oral midazolam microdose (AUC2-4, limited sampling); type: in vivo, human (healthy volunteers); conditions: human, plasma, 30 ug, oral microdose 30 μg, at clarithromycin steady-state
Parameter: AUC (ng·h/mL)
Your answer should be a plain number; it is taken to be in ng·h/mL.

Exercise: # input compound: Cc1ncc2n1-c1ccc(Cl)cc1C(c1ccccc1F)=NC2 ; wanted: its AUC
Solution: 0.672

----------
Experiment: Pharmacokinetics of a single 60 mg edoxaban dose before and during clarithromycin
Details: human, in vivo, 60 mg, Vz, geometric mean, edoxaban 60 mg, baseline
Method: The study was an open-label, two-period, one-sequence DDI trial in healthy volunteers to assess the impact of clarithromycin on the pharmacokinetics of 60 mg edoxaban, given as a tablet, and the effect of clarithromycin on apixaban (25 μg), edoxaban (50 μg), and rivaroxaban (25 μg) administered as an oral microdose cocktail. Concurrently, the effect of clarithromycin on CYP3A activity was quantified by means of an oral midazolam microdose (30 μg) (Fig. 1). […]
Parameter: Vd
Please report the result as a number followed by the unit.

Exercise: # input compound: CN1CCc2nc(C(=O)N[C@@H]3C[C@@H](C(=O)N(C)C)CC[C@@H]3NC(=O)C(=O)Nc3ccc(Cl)cn3)sc2C1 [Edoxaban, edoxaban] ; wanted: its Vd
Solution: 594 L

----------
assay: Pharmacokinetics of a microdosed FXaI cocktail before and during clarithromycin; settings: human, in vivo, po, Cmax, geometric mean, oral microdose cocktail, baseline
Parameter: Cmax (ng/mL)
Your answer should be a plain number; it is taken to be in ng/mL.

Exercise: # input compound: CN1CCc2nc(C(=O)N[C@@H]3C[C@@H](C(=O)N(C)C)CC[C@@H]3NC(=O)C(=O)Nc3ccc(Cl)cn3)sc2C1 ; wanted: its Cmax
Solution: 0.153
